meta.source: ChEMBL document CHEMBL1133531

Ki values recorded for Carbonic anhydrase 1 (Homo sapiens, UniProt P00915)
Number only, in nM; omit the unit.

>>> print(df.to_string())
                               smiles_input  unit_spec  experimental_result
0  NS(=O)(=O)c1ccc(NC(=O)C(F)(F)C(F)(F)C(F)(F)C(F)(F)C(F)(F)C(F)(F)C(F)(F)C(F)(F)F)c(F)c1         nM                 1400

Then this compound:
Input `NS(=O)(=O)c1cccc(NS(=O)(=O)c2ccc(NS(=O)(=O)c3c(F)c(F)c(F)c(F)c3F)cc2)c1` . Output Ki: 150

====

Listing of recorded pKi by entry.
Target sequence: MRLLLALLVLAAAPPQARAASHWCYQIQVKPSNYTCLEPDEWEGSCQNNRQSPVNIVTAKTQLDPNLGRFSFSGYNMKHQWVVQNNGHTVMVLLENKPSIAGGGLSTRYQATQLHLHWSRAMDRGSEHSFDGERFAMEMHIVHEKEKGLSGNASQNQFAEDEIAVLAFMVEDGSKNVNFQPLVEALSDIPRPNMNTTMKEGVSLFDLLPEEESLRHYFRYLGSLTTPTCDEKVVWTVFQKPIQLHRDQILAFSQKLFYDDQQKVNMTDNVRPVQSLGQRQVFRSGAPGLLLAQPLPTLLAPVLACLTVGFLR
In textbook form, pKi equals minus log to base ten of the concentration in mol/L.

>>> print(df.to_string())
                               smiles_input  assay_readout  experimental_result
0  NS(=O)(=O)c1ccc(Nc2ccnc(NC(=O)C(F)(F)C(F)(F)C(F)(F)C(F)(F)C(F)(F)C(F)(F)C(F)(F)C(F)(F)F)n2)cc1            pKi                 7.44
1  NS(=O)(=O)c1cc(S(N)(=O)=O)c(NC(=O)C(F)(F)C(F)(F)C(F)(F)C(F)(F)C(F)(F)C(F)(F)C(F)(F)C(F)(F)F)cc1Cl            pKi                 6.89
2  NS(=O)(=O)c1ccc(CCOS(=O)(=O)C(F)(F)C(F)(F)C(F)(F)C(F)(F)C(F)(F)C(F)(F)C(F)(F)C(F)(F)F)cc1            pKi                 4.91

Input `NS(=O)(=O)c1cc(S(N)(=O)=O)c(NS(=O)(=O)C(F)(F)C(F)(F)C(F)(F)C(F)(F)C(F)(F)C(F)(F)C(F)(F)C(F)(F)F)cc1Cl` . Output pKi: 6.81

Input `NS(=O)(=O)c1ccc(Nc2ccnc(NS(=O)(=O)C(F)(F)C(F)(F)C(F)(F)C(F)(F)C(F)(F)C(F)(F)C(F)(F)C(F)(F)F)n2)cc1` . Output pKi: 7.47

====

# Assay target: Carbonic anhydrase 1 (Homo sapiens, UniProt P00915)
# Sequence (P00915 whole entry): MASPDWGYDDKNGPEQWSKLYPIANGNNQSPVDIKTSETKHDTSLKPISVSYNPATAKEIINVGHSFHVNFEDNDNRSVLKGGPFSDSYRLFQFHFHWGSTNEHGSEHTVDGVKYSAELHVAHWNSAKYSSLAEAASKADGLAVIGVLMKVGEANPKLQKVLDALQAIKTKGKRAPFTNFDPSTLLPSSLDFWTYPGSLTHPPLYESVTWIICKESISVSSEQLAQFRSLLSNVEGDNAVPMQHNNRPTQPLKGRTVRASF
// returns f unless Ki is strictly below 4000 nM, in which case t

Previously resolved entries follow.
>>> df
                               smiles_input  label_class
0  NS(=O)(=O)c1ccc(CNC(=O)C(F)(F)C(F)(F)C(F)(F)C(F)(F)C(F)(F)C(F)(F)C(F)(F)C(F)(F)F)cc1            t
1  NS(=O)(=O)c1nc2ccc(OC(=O)c3c(F)c(F)c(F)c(F)c3F)cc2s1            t
2  NS(=O)(=O)c1ccc(CNC(=O)c2c(F)c(F)c(F)c(F)c2F)cc1            t

Here's the next entry for you.
Is the reported Ki for `NS(=O)(=O)c1cc(S(N)(=O)=O)c(NS(=O)(=O)C(F)(F)F)c(Cl)c1Cl` strictly below 4000 nM?
f

====

Ki values recorded for Carbonic anhydrase 1 (Homo sapiens)
Number only, in µM; omit the unit.

In [3]: df
Out[3]:
                               smiles_input  experimental_result
0  NS(=O)(=O)c1ccc(NC(=O)c2c(F)c(F)c(F)c(F)c2F)c(Cl)c1                 1.08
1  Cn1nc(S(N)(=O)=O)s/c1=N/S(=O)(=O)c1ccc(NC(=O)c2c(F)c(F)c(F)c(F)c2F)cc1                  1.6
2  NS(=O)(=O)c1nc2ccc(OC(=O)C(F)(F)C(F)(F)C(F)(F)C(F)(F)C(F)(F)C(F)(F)C(F)(F)C(F)(F)F)cc2s1                0.037
3  NS(=O)(=O)c1nnc(NS(=O)(=O)c2ccc(NS(=O)(=O)C(F)(F)C(F)(F)C(F)(F)C(F)(F)C(F)(F)C(F)(F)C(F)(F)C(F)(F)F)cc2)s1                  0.8
4  NS(=O)(=O)c1ccc(NC(=O)c2c(F)c(F)c(F)c(F)c2F)c(I)c1                 2.56

The measured Ki that `Cn1nc(S(N)(=O)=O)s/c1=N/S(=O)(=O)c1ccc(NS(=O)(=O)C(F)(F)C(F)(F)C(F)(F)C(F)(F)F)cc1` showed for Carbonic anhydrase 1 (Homo sapiens) is 1

The measured Ki that `Cn1nc(S(N)(=O)=O)sc1=NS(=O)(=O)C(F)(F)C(F)(F)C(F)(F)C(F)(F)C(F)(F)C(F)(F)C(F)(F)C(F)(F)F` showed for Carbonic anhydrase 1 (Homo sapiens) is 0.38

====

log10 of Ki values recorded for UniProtKB P00915
Form field - Quantity: Ki; Unit: µM; Scale: log10

In [3]: df
Out[3]:
                               smiles_input  experimental_result
0  NS(=O)(=O)c1cc(S(N)(=O)=O)c(NS(=O)(=O)C(F)(F)C(F)(F)C(F)(F)C(F)(F)C(F)(F)C(F)(F)C(F)(F)C(F)(F)F)cc1Cl                -0.05
1  NS(=O)(=O)c1nnc(NC(=O)CCNS(=O)(=O)c2c(F)c(F)c(F)c(F)c2F)s1                -0.70
2   Cn1nc(S(N)(=O)=O)sc1=NS(=O)(=O)C(F)(F)F                 0.30
3  NS(=O)(=O)c1ccc(Nc2ccnc(NS(=O)(=O)c3c(F)c(F)c(F)c(F)c3F)n2)cc1                -0.49
4  NS(=O)(=O)c1cccc(NS(=O)(=O)c2c(F)c(F)c(F)c(F)c2F)c1                 0.04

Input `NS(=O)(=O)c1ccc(NNC(=O)C(F)(F)C(F)(F)C(F)(F)C(F)(F)C(F)(F)C(F)(F)C(F)(F)C(F)(F)F)cc1` . Output log10 of Ki: 0.27

====

Listing of recorded logD by entry.
# Procedure details: Partition coefficient (logD) (chloroform-buffer)
# Format: physicochemical
Quick one: just the number, no unit, thanks!

Some solved cases for reference:
>>> df
                               smiles_input  assay_readout  experimental_result
0  NS(=O)(=O)c1nnc(NS(=O)(=O)c2ccc(NC(=O)C(F)(F)C(F)(F)C(F)(F)C(F)(F)C(F)(F)C(F)(F)C(F)(F)C(F)(F)F)cc2)s1           logD                1.436
1  NS(=O)(=O)c1nnc(NS(=O)(=O)C(F)(F)C(F)(F)C(F)(F)C(F)(F)F)s1           logD                1.525
2   Cn1nc(S(N)(=O)=O)sc1=NS(=O)(=O)C(F)(F)F           logD                1.012

Input `NS(=O)(=O)c1nnc(NC(=O)c2c(F)c(F)c(F)c(F)c2F)s1` . Output logD: 2.245

Input `NS(=O)(=O)c1nnc(NS(=O)(=O)c2ccc(NS(=O)(=O)C(F)(F)C(F)(F)C(F)(F)C(F)(F)C(F)(F)C(F)(F)C(F)(F)C(F)(F)F)cc2)s1` . Output logD: 1.689

====

# Species on record: Oryctolagus cuniculus
Listing of recorded Kin by entry.
Number only, in h⁻¹; omit the unit.

Some solved cases for reference:
>>> print(df.to_string())
                                   molecule  assay_readout  experimental_result
0  NS(=O)(=O)c1nnc(NS(=O)(=O)c2c(F)c(F)c(F)c(F)c2F)s1            Kin                 8700
1  Cn1nc(S(N)(=O)=O)sc1=NS(=O)(=O)c1c(F)c(F)c(F)c(F)c1F            Kin                 8800
2  CC(=O)/N=c1/sc(S(N)(=O)=O)nn1C [METHAZOLAMIDE]            Kin                13000

Input `NS(=O)(=O)c1nnc(NC(=O)c2c(F)c(F)c(F)c(F)c2F)s1` . Output Kin: 10100

Input `Cn1nc(S(N)(=O)=O)sc1=NS(=O)(=O)C(F)(F)F` . Output Kin: 4800

Input `NS(=O)(=O)c1nnc(NS(=O)(=O)c2ccc(NS(=O)(=O)C(F)(F)C(F)(F)C(F)(F)C(F)(F)C(F)(F)C(F)(F)C(F)(F)C(F)(F)F)cc2)s1` . Output Kin: 7.5

Input `NS(=O)(=O)c1nnc(NS(=O)(=O)C(F)(F)C(F)(F)C(F)(F)C(F)(F)F)s1` . Output Kin: 7000

Input `NS(=O)(=O)c1nnc(NS(=O)(=O)c2ccc(NC(=O)C(F)(F)C(F)(F)C(F)(F)C(F)(F)C(F)(F)C(F)(F)C(F)(F)C(F)(F)F)cc2)s1` . Output Kin: 8
